assay: Acute toxicity in mice (Table 4); details: mouse, in vivo, po
Catalogue of compounds with associated LD50
QUANTITY: LD50 (mg/kg)

INSERT INTO assay_data (compound, output_unit, op, measured_value) VALUES
  ('O=C(NCCCO)c1ccc(C=Cc2ccc([N+](=O)[O-])o2)cc1 [Example 4]', 'mg/kg', '=', 1900),
  ('O=C(NCC(O)CO)c1ccc(C=Cc2ccc([N+](=O)[O-])o2)cc1 (stereo not drawn) [Example 9]', 'mg/kg', '>', 2000),
  ('NC(=O)CNC(=O)c1ccc(C=Cc2ccc([N+](=O)[O-])o2)cc1 [Example 16]', 'mg/kg', '=', 2000),
  ('O=C(NCCOCCO)c1ccc(C=Cc2ccc([N+](=O)[O-])o2)cc1 [Example 11]', 'mg/kg', '=', 1850),
  ('O=C(NCCO)c1ccc(C=Cc2ccc([N+](=O)[O-])o2)cc1 [Example 1]', 'mg/kg', '=', 1500),
  ('CC(O)CNC(=O)c1ccc(C=Cc2ccc([N+](=O)[O-])o2)cc1 (stereo not drawn) [Example 5]', 'mg/kg', '=', 1700),
  ('NC(=O)C(CO)NC(=O)c1ccc(C=Cc2ccc([N+](=O)[O-])o2)cc1 (stereo not drawn) [Example 19]', 'mg/kg', '>', 2000),
  ('O=C(NCCO)c1cccc(C=Cc2ccc([N+](=O)[O-])o2)c1 [Example 2]', 'mg/kg', '=', 2000),
  ('NC(=O)c1ccc(C=Cc2ccc([N+](=O)[O-])o2)cc1 [Compound A, reference compound]', 'mg/kg', '>', 400);
